Listed next: entries and their corresponding IC50.
Tested on: 993429-296-R-J1-PDC complex spheroid growth, percent test/control;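 further: spheroids exposed to compounds for seven days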
Experiment: Anticancer human tumor 993429-296-R-J1-PDC patient-derived uterine sarcoma cell line growth inhibition [Asc]
Conditions: curve of first compound; second compound 0.0949 µM

[
  {
    "COMPOUND": "NC1CCC(NC2CC2c2ccccc2)CC1 (centres undefined) + CCN1C(C(=O)NC23CCC(C(=O)O)(CC2)CC3)C(c2cccc(Cl)c2F)C2(C(=O)Nc3cc(Cl)ccc32)C12CCCCC2",
    "TEST SYSTEM": "993429-296-R-J1-PDC complex spheroid growth, percent test/control",
    "IC50": "> 100 nM"
  },
  {
    "COMPOUND": "CCN1CCN(Cc2ccc(Nc3ncc(F)c(-c4cc(F)c5nc(C)n(C(C)C)c5c4)n3)nc2)CC1 + CCN1C(C(=O)NC23CCC(C(=O)O)(CC2)CC3)C(c2cccc(Cl)c2F)C2(C(=O)Nc3cc(Cl)ccc32)C12CCCCC2",
    "TEST SYSTEM": "993429-296-R-J1-PDC complex spheroid growth, percent test/control",
    "IC50": "> 1000 nM"
  },
  {
    "COMPOUND": "CNC(C)C(=O)NC1CN(S(=O)(=O)c2cccc(S(=O)(=O)N3CCC4CCC(C(=O)NC(c5ccccc5)c5ccccc5)N4C(=O)C(NC(=O)C(C)NC)C3)c2)CCC2CCC(C(=O)NC(c3ccccc3)c3ccccc3)N2C1=O (centres undefined) + CCN1C(C(=O)NC23CCC(C(=O)O)(CC2)CC3)C(c2cccc(Cl)c2F)C2(C(=O)Nc3cc(Cl)ccc32)C12CCCCC2",
    "TEST SYSTEM": "993429-296-R-J1-PDC complex spheroid growth, percent test/control",
    "IC50": "> 1000 nM"
  },
  {
    "COMPOUND": "C=CC(=O)N1CCN(c2nc(=O)n(-c3c(C)ccnc3C(C)C)c3nc(-c4c(O)cccc4F)c(F)cc23)C(C)C1 (centres undefined) + CCN1C(C(=O)NC23CCC(C(=O)O)(CC2)CC3)C(c2cccc(Cl)c2F)C2(C(=O)Nc3cc(Cl)ccc32)C12CCCCC2",
    "TEST SYSTEM": "993429-296-R-J1-PDC complex spheroid growth, percent test/control",
    "IC50": "> 10000 nM"
  }
]
